The following molecules are shown together with reported DC50 values.
measured.target: BRAF D594G (Homo sapiens, UniProt P15056, D594G)
Construct: Horizon Discovery (HCT-116 BRAF−/− cells); host or cells: HCT-116 BRAF−/− cells, clone 63, lentiviral transduction
Sequence (P15056 whole entry D594G): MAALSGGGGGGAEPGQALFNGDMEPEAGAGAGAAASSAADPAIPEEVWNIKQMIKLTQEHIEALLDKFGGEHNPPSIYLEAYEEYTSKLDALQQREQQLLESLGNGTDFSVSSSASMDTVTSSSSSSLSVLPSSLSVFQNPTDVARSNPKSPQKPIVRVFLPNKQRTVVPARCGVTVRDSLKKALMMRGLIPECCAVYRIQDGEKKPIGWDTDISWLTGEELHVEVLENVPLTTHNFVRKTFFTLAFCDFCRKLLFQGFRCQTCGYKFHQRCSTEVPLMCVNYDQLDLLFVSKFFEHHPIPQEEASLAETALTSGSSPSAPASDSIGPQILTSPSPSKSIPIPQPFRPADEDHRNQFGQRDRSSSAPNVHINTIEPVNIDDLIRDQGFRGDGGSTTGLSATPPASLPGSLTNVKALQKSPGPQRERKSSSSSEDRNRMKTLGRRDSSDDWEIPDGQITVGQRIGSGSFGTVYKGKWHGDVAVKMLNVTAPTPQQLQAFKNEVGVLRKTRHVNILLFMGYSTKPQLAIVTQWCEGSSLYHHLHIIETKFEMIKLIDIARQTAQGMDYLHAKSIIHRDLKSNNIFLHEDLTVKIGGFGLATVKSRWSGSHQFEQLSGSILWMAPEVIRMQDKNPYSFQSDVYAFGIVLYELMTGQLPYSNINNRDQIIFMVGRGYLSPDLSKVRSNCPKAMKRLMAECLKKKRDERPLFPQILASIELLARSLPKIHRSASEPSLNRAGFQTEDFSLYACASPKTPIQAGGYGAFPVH
measurement.notes: BRAF HiBiT degradation assay, C-terminal HiBiT-tagged BRAF D594G overexpressed in HCT-116 BRAF−/− cells (clone 63), Nano-Glo HiBiT Lytic assay
Type: cell-based
condition.summary: BRAF D594G (Class 3), HCT-116 BRAF−/− cells; DC50 at 50% degradation

Examples with their reported DC50 follow.
# molecule, measured
rows = [
    ("CCN(C)S(=O)(=O)Nc1cc(Cl)cc(-c2cn(-c3ccc(N4CCN(CC5CCN(c6ccc(N7CCC(=O)NC7=O)cc6)CC5)CC4)cc3)nc2-c2ccncc2)c1F [Compound 307]", "10 to 50 nM"),
    ("O=C1CC[C@H](c2ccc(N3CCC(CN4CCN(c5ccc(-n6cc(-c7cc(Cl)cc(NS(=O)(=O)N8CC(F)C8)c7F)c(-c7ccncc7)n6)cc5)CC4)CC3)cc2)C(=O)N1 [Compound 333]", "< 10 nM"),
]

Lab note: next molecule to report on.
Exercise: Fill in the blank: the reported DC50 of O=C1CCC(c2ccc(N3CCC(CN4CCN(c5ccc(-n6cc(-c7cc(Cl)cc(NS(=O)(=O)N8CCCC8)c7F)c(-c7ccncc7)n6)cc5F)CC4)CC3)nc2)C(=O)N1 (racemic) [Compound 363] is ____.
Key: < 10 nM
